target: ERK1 (Homo sapiens, UniProt P27361); construct: purchased Jubilant Biosys; experiment: ERK1 HTRF (biochemical) assay; conditions: HTRF
Sequence (P27361 whole entry): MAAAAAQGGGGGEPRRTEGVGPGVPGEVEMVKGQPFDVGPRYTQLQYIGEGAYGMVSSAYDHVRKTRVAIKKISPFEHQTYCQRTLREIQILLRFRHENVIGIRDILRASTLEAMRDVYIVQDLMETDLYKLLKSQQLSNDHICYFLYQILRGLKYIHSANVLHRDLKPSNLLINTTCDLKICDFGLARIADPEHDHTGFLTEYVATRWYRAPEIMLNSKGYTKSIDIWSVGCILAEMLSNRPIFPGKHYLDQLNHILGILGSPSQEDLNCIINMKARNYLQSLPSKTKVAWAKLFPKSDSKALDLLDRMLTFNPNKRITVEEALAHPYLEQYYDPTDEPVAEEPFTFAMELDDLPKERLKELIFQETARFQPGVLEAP
pIC50: −log10 of the molar value.
measured_attribute: pIC50

[[record]]
compound = "Cc1cnc(Nc2ccc(F)cc2Cl)nc1-n1cnc(C(=O)NC(CO)c2cccc(Cl)c2)c1 (stereo not shown)"
measured_attribute = "pIC50"
measurement = "> 7.30"

[[record]]
compound = "Cc1cnc(Nc2ccc(F)c(N3CCNCC3)c2)nc1-n1ccc(C(=O)NC(CO)c2cccc(Cl)c2)c1 (stereo not shown)"
measured_attribute = "pIC50"
measurement = "> 7.30"

[[record]]
compound = "Cc1cnc(NC2CC(F)(F)C2)nc1-n1cnc(C(=O)N[C@@H](CN)c2cc(F)cc(Cl)c2)c1"
measured_attribute = "pIC50"
measurement = "6.30 to 7.00"

[[record]]
compound = "Cc1cnc(NC2CCCCC2)nc1-n1ccc(C(=O)NC(CO)c2cccc(Cl)c2)c1 (stereo not shown)"
measured_attribute = "pIC50"
measurement = "> 7.30"

[[record]]
compound = "Cc1cnc(Nc2ccc(F)c(C(=O)N3CCN(C)CC3)c2)nc1-n1ccc(C(=O)NC(CO)c2cccc(Cl)c2)c1 (stereo not shown)"
measured_attribute = "pIC50"
measurement = "> 7.30"

[[record]]
compound = "Cc1cnc(NC2CCOCC2)nc1-n1cnc(C(=O)NC(c2cccc(Cl)c2)C(C)O)c1 (stereo not shown) [Compound 253]"
measured_attribute = "pIC50"
measurement = "> 7.30"

[[record]]
compound = "Cc1cnc(Nc2cccnc2)nc1-n1cc(NC(=O)N[C@H](CO)c2cccc(Cl)c2)cn1"
measured_attribute = "pIC50"
measurement = "> 7.30"

[[record]]
compound = "Cc1cnc(NC2CC2)nc1-n1ccc(C(=O)NC(CO)c2cccc(Cl)c2)c1 (stereo not shown)"
measured_attribute = "pIC50"
measurement = "> 7.30"

[[record]]
compound = "Cc1cnc(Nc2ccccc2)cc1-n1cnc(C(=O)NC(CO)c2cccc(Cl)c2)c1 (stereo not shown)"
measured_attribute = "pIC50"
measurement = "> 7.30"

[[record]]
compound = "Cc1cnc(Nc2ccc3c(c2)OCO3)nc1-n1ccc(C(=O)NC(CO)c2cccc(Cl)c2F)c1 (stereo not shown)"
measured_attribute = "pIC50"
measurement = "> 7.30"

[[record]]
compound = "Cc1cnc(NC2CCOCC2)nc1-n1cnc(C(=O)N[C@H](CO)c2cccc(Cl)c2)c1"
measured_attribute = "pIC50"
measurement = "> 7.30"

[[record]]
compound = "Cc1cnc(Nc2ccc(F)cc2Cl)nc1-n1cc(NC(=O)N[C@H](CO)c2cccc(Cl)c2)cn1"
measured_attribute = "pIC50"
measurement = "> 7.30"

[[record]]
compound = "Cc1cnc(NC2CCOCC2)nc1-n1cnc(C(=O)NC(CO)c2ccsc2)c1 (stereo not shown)"
measured_attribute = "pIC50"
measurement = "> 7.30"

[[record]]
compound = "Cc1cnc(Nc2ccc3c(c2)OCO3)nc1-n1cnc(C(=O)N[C@H](CO)c2cccc(Cl)c2)c1"
measured_attribute = "pIC50"
measurement = "> 7.30"

[[record]]
compound = "O=C(NC(CO)c1cccc(Cl)c1)c1ccn(-c2ccnc(Nc3ccc4c(c3)OC(F)(F)O4)n2)c1 (stereo not shown)"
measured_attribute = "pIC50"
measurement = "> 7.30"

[[record]]
compound = "Cc1cnc(NC2CCOc3ccccc32)nc1-n1cnc(C(=O)N[C@H](CO)c2cccc(Cl)c2)c1 (stereo partly shown)"
measured_attribute = "pIC50"
measurement = "> 7.30"

[[record]]
compound = "O=C(Nc1cnn(-c2ccnc(Nc3ccccc3Cl)n2)c1)N[C@@H](CO)c1ccccc1"
measured_attribute = "pIC50"
measurement = "< 5.60"

[[record]]
compound = "O=C(Nc1cnn(-c2ccnc(NC3CC3)n2)c1)NC(CO)c1cccc(Cl)c1 (stereo not shown)"
measured_attribute = "pIC50"
measurement = "6.30 to 7.00"

[[record]]
compound = "Cc1cnc(Nc2ccc(F)cc2)cc1-n1ccc(C(=O)NC(CN)c2cccc(Cl)c2)c1 (stereo not shown)"
measured_attribute = "pIC50"
measurement = "7.00 to 7.30"

[[record]]
compound = "O=C(N[C@H](CO)c1cccc(Cl)c1)c1cnn(-c2ccnc(Nc3ccccc3)n2)c1"
measured_attribute = "pIC50"
measurement = "6.30 to 7.00"

[[record]]
compound = "Cc1cnc(NC2CCOCC2)nc1-n1cnc(C(=O)N[C@@H](CO)c2cccc(Cl)c2)c1"
measured_attribute = "pIC50"
measurement = "6.30 to 7.00"

[[record]]
compound = "Cc1cnc(NC2CC2)nc1-n1cc(C(=O)N[C@H](CO)c2cccc(Cl)c2)cn1"
measured_attribute = "pIC50"
measurement = "7.00 to 7.30"

[[record]]
compound = "Cc1cnc(Nc2ccc3occc3c2)nc1-n1ccc(C(=O)NC(CO)c2cccc(Cl)c2)c1 (stereo not shown)"
measured_attribute = "pIC50"
measurement = "> 7.30"

[[record]]
compound = "Cc1cnc(Nc2ccc3occc3c2)cc1-n1ccc(C(=O)NC(CO)c2ccccc2)c1 (stereo not shown)"
measured_attribute = "pIC50"
measurement = "6.30 to 7.00"

[[record]]
compound = "COC[C@@H](NC(=O)c1ccn(-c2nc(Nc3ccc4c(c3)OCO4)ncc2C)c1)c1ccccc1"
measured_attribute = "pIC50"
measurement = "> 7.30"

[[record]]
compound = "Cc1cnc(NC2CC(F)(F)C2)nc1-n1cnc(C(=O)NC(CN)c2cc(F)cc(Cl)c2)c1 (stereo not shown)"
measured_attribute = "pIC50"
measurement = "> 7.30"

[[record]]
compound = "CC[C@@H](CO)Nc1cc(-n2ccc(C(=O)NC(CO)c3cccc(Cl)c3)c2)ccn1 (stereo partly shown)"
measured_attribute = "pIC50"
measurement = "> 7.30"

[[record]]
compound = "COc1ccc(Nc2ncc(C)c(-n3ccc(C(=O)NC(CO)c4ccccc4)c3)n2)cc1OCCN1CCN(C)CC1 (stereo not shown)"
measured_attribute = "pIC50"
measurement = "> 7.30"

[[record]]
compound = "Cc1cnc(Nc2ccc(F)cc2)nc1-n1cnc(C(=O)NCc2cccc(Cl)c2CO)c1"
measured_attribute = "pIC50"
measurement = "> 7.30"

[[record]]
compound = "Cc1cnc(NC2CCOC2)nc1-n1cnc(C(=O)NC(CN)c2cccc(Cl)c2)c1 (stereo not shown)"
measured_attribute = "pIC50"
measurement = "> 7.30"

[[record]]
compound = "Cc1cn(-c2nc(Nc3ccc(F)cc3)ncc2C)cc1C(=O)NC(CO)c1cccc(Cl)c1 (stereo not shown)"
measured_attribute = "pIC50"
measurement = "> 7.30"

